test summary: NCI Yeast Anticancer Drug Screen. Data for the mlh1 rad18 strain (AID 175)
run parameters: S. cerevisiae mlh1 rad18 strain growth inhibition; at 50.0 µM; stronger effect = higher value
This is part of a sample that, as a whole, favours compounds with a hit. Of some 79,000 tested, about 15% had one in any assay. The source made the active and inactive calls. Rule as the data show it: active = growth inhibition above about 70%; inactive = the rest.
parameter: growth inhibition

Completed entries (count: 2):
| compound | growth inhibition |
| --- | --- |
| CC(C)(C)c1ccc(NS(=O)(=O)c2ccc(N)cc2)cc1 | 97.2% (active) |
| Cc1c2ccnc(C(=O)NCCN(C)C)c2cc2c3cc(O)ccc3n(C)c12 | 46.4% (inactive) |

Proceeding to the next compound to report its growth inhibition.
Can you share its growth inhibition? I mean this compound: C[C](C)(C)[Ge]([O][Ge]([c]1ccccc1)[c]1ccccc1)([O][Ge]([c]1ccccc1)[c]1ccccc1)[C](C)(C)C
75.9% (active)
